Tested on: A673/TR/shEF
test: cell viability (LOESS-normalised, relative to median of negative controls) (log2 ratio); higher = more viable cells (less compound effect), active = hit call of the paper (over 3 MAD below the median)
condition_notes: 0.25 µM; library screen: screen1; EWS-FLI1 expression: low (doxycycline-induced shRNA knockdown); treatment time: 72 h
Out of some 3,200 compounds screened, about 300 (9.4%) showed activity. The list comes from a sample in which actives are over-represented; it also holds close analogues and randomly drawn compounds.
Would you mind telling me the reported cell viability (log2) of each entry?
Answers are plain numbers.

The examples below pair each entry with its known result.
{"columns": ["compound", "experimental_target", "cell viability (log2)"],
 "data": [
  ["CO/N=C(\\C(=O)N[C@@H]1C(=O)N2C(C(=O)O)=C(CSc3nc(=O)c(=O)[nH]n3C)CS[C@H]12)c1csc(N)n1", "A673/TR/shEF", 0.0388],
  ["O=c1c(O)c(-c2cc(O)c(O)c(O)c2)oc2cc(O)cc(O)c12", "A673/TR/shEF", 0.156]
]}

I have 4 compounds here; please give me cell viability (log2) for each one.
1. Cc1ccc(OCC(=O)N2CCC(C)CC2)c(C)c1
2. CC[C@H]1OC(=O)[C@H](C)[C@@H](O[C@H]2C[C@@](C)(OC)[C@@H](O)[C@H](C)O2)[C@H](C)[C@@H](O[C@@H]2O[C@H](C)C[C@H](N(C)C)[C@H]2O)[C@](C)(O)C[C@@H](C)/C(=N/OCOCCOC)[C@H](C)[C@@H](O)[C@]1(C)O
3. CCOC(=O)C1=C(C)N=C2SC(C)C(=O)N2C1c1ccc(OC)cc1 (centres undefined)
4. CC(=O)O[C@@H]1CC2C(C)(C)C=CC(=O)[C@]2(C)C2CC[C@@]3(C)[C@H](c4ccoc4)OC(=O)C4OC43[C@@]21C (some centres undefined)

Result ::
[0.118, 0.107, 0.0319, 0.0804]
